Test system: EKVX NSCLC
assaySummary: NCI tumour cell line growth inhibition, 48 h
experimentalReadout: TGI

Consider the worked cases shown below.
Q) Report TGI for `Clc1ccccc1-c1nnc2c(-c3ccccc3)nc3ccccc3n12` please.
A) > 100 µM

Q) Report TGI for `Nc1ccccc1OCc1cc(=O)c(OCc2ccccc2)co1` please.
A) > 100 µM

Q) Report TGI for C/C=C/C=C\C1OC(O)([C@H](CC)C(=O)NC/C=C/C=C(\C)[C@H](OC)C(C)C2OC(\C=C/C=C/C=C(\C)C(=O)c3c(O)ccn(C)c3=O)[C@H](O)[C@@H]2O)C(O)C(O)C1(C)C (stereo partly drawn) please.
A) > 100 µM

Q) Report TGI for `O=[N+]([O-])/C=C/COCc1cc2c(cc1Br)OCO2` please.
A) 48.8 µM

Q) Report TGI for N#CC1=C(N)Oc2c(sc3c(F)cccc23)C1c1ccc(F)cc1 (stereo not drawn) please.
A) 20.2 µM

Q) Report TGI for `Cc1cccc2c1C/C(=C1\CCc3c(C)cccc31)C2=O` please.
A) > 100 µM

Q) Report TGI for CC1/C(=N/Nc2ccc([N+](=O)[O-])cc2)CC2C3(C)CCC2(C(C)C(=O)O)C(=O)C13 (stereo not drawn) please.
A) > 100 µM

Q) Report TGI for CCCN(CCC)C(=O)[C@H](CC)[C@@H]1CC[C@@H](C)[C@@H]([C@H](C)[C@@H](O)[C@@H](C)C(=O)[C@H](CC)C2O[C@]3(C=C[C@@H](O)[C@]4(CC[C@@](C)([C@H]5CC[C@](O)(CC)[C@H](C)O5)O4)O3)[C@H](C)C[C@@H]2C)O1 (stereo partly drawn) please.
A) 11.7 µM

Q) Report TGI for COC1=CC(=O)[C@]2(C)[C@H](C1=O)C(C)[C@H]2c1ccccc1 (stereo partly drawn) please.
A) > 100 µM

Q) Report TGI for COC(=O)CC1(O)C(/C=C/c2ccccc2)C(C(=O)OC)C(=O)C(C(=O)OC)C1C(=O)OC (stereo not drawn) please.
A) > 100 µM

More entries:
Q) Report TGI for `Cc1ccc(CCCCCOc2ccc(C3=NCCO3)cc2)s1` please.
A) > 100 µM

Q) Report TGI for `COc1cc(-c2oc3c(OC)c(O)c(OC)c(O)c3c(=O)c2OC)ccc1O` please.
A) > 100 µM

###

Test system: COLO 205 colon
assaySummary: NCI tumour cell line growth inhibition, 48 h
Response key: condition met means TGI >= 40 µM; condition not met means TGI < 40 µM.

Q) Could you tell me if the measured TGI of `N=C(N)c1ccc(-c2ccc(-c3cccs3)s2)nc1` reaches 40 µM or more?
A) condition not met

More entries:
Q) Could you tell me if the measured TGI of CCCCCCCCCC1CC(=O)NCC(=O)NC(C(C)C)C(=O)NC(CC(C)C)C(=O)NC(C)C(=O)NC(C(C)C)C(=O)O1 (stereo not given) reaches 40 µM or more?
A) condition met

Q) Could you tell me if the measured TGI of `C=CC(=O)Nc1cccc(C)c1Nc1ncc2cc(-c3c(Cl)c(OC)cc(OC)c3Cl)ccc2n1` reaches 40 µM or more?
A) condition not met

Q) Could you tell me if the measured TGI of `Cc1cc(-c2nc3cc(O)ccc3s2)ccc1N` reaches 40 µM or more?
A) condition met

Q) Could you tell me if the measured TGI of `O=Cc1ccc(-c2cccc([N+](=O)[O-])c2)s1` reaches 40 µM or more?
A) condition met

Q) Could you tell me if the measured TGI of O=CC1C[C@@H](N2C(=O)O[C@@H](c3ccccc3)[C@H]2c2ccccc2)[C@@H]1COCc1ccccc1 (stereo not given in full) reaches 40 µM or more?
A) condition met

Q) Could you tell me if the measured TGI of CSC(=S)OC1C(CO[Si](C)(C)C(C)(C)C)OC2OC(C)(C)OC21 (stereo not given) reaches 40 µM or more?
A) condition not met

Q) Could you tell me if the measured TGI of COc1ccc2c(c1)N=C1CSC(c3c(Cl)cccc3[N+](=O)[O-])N1C2 (stereo not given) reaches 40 µM or more?
A) condition met

Q) Could you tell me if the measured TGI of `CS/C(c1ccccc1)=[N+](/C)[O-]` reaches 40 µM or more?
A) condition met

Q) Could you tell me if the measured TGI of Cc1nn(-c2nc3ccccc3[nH]2)c2c1C(c1ccc3c(c1)OCO3)CC(=O)N2 (stereo not given) reaches 40 µM or more?
A) condition not met

###

TGI: recorded values
Tested on: M14 melanoma
assaySummary: NCI tumour cell line growth inhibition, 48 h

Consider the worked cases shown below.
Q) Report TGI for `O=[N+]([O-])c1ccc(NC(=S)Nc2ccccn2)cc1` please.
A) > 100 µM

Q) Report TGI for `Cc1ccc(C2=C(c3ccccc3)C(Br)(c3ccccc3)C(c3ccccc3)=C2c2ccc(C)cc2)cc1` please.
A) > 100 µM

Q) Report TGI for `C/C(=N/NC(=S)NCCc1ccccn1)c1cnccn1` please.
A) > 100 µM

More entries:
Q) Report TGI for COc1cc(/C=C2/C(=O)NC(Cc3cc(OC)c(OC)c(C)c3OC)C(=O)N2Cc2ccccc2)c(OC)c(C)c1OC (stereo unspecified) please.
A) > 100 µM

Q) Report TGI for `Clc1ccccc1-c1nnc2c(-c3ccccc3)nc3ccccc3n12` please.
A) > 100 µM

Q) Report TGI for `CC1=Nn2c(nnc2-c2ccc(N)cc2)NC(C)(C)C1` please.
A) > 100 µM

Q) Report TGI for `COc1cc2cccc(NC(=O)c3cc(OC)c(OC)c(OC)c3Br)c2cc1OC` please.
A) 23.5 µM

Q) Report TGI for `Cc1ccc(N2C(=O)/C(=C/c3ccc(N(CCC#N)CCC#N)cc3C)N=C2c2cc([N+](=O)[O-])ccc2Cl)cc1` please.
A) > 100 µM

###

Test system: MALME-3M melanoma
assaySummary: NCI tumour cell line growth inhibition, 48 h
TGI: recorded values
Answer in µM, number only, no unit symbol.

Consider the worked cases shown below.
Q) Report TGI for Cc1nn(-c2nc3ccccc3[nH]2)c2c1C(c1ccc3c(c1)OCO3)CC(=O)N2 (stereo not given) please.
A) 6.04

Q) Report TGI for `O=Cc1ccc(O)c2ncccc12` please.
A) 30.4

Q) Report TGI for `O=C1NC(=NC2CCCCC2)C2(CCN(CCCC3(c4ccc(F)cc4)OCCO3)CC2)N1c1ccccc1` please.
A) 30.5

Q) Report TGI for `O=C(/C=C/c1ccc(C(F)(F)F)cc1)c1ccc(Nc2nc(NCCO)nc(N3CCOCC3)n2)cc1` please.
A) 10.2

Q) Report TGI for CC(C)(C)[Si](C)(C)OCC#C[C@@]1(O)CCCCC1CC(Sc1ccccc1)Sc1ccccc1 (stereo not given in full) please.
A) 32.3

Q) Report TGI for `COc1cc(/C=C/C(=O)c2c(C)n([O-])c3ccc(Cl)cc3[n+]2=O)cc(OC)c1OC` please.
A) 35.3

We next turn to a different compound, shown below.
Q) Report TGI for `CCOC(=O)C#Cc1c(CC(=O)OCC)nnn1[C@H]1O[C@@H](CO)[C@@H]2OC(C)(C)O[C@@H]21` please.
A) 4.16

###

TGI: recorded values
System: TK-10 renal
assaySummary: NCI tumour cell line growth inhibition, 48 h

Consider the worked cases shown below.
Q) Report TGI for `CCOC(=O)C#Cc1c(CC(=O)OCC)nnn1[C@H]1O[C@@H](CO)[C@@H]2OC(C)(C)O[C@@H]21` please.
A) 3.39 µM

Q) Report TGI for `O=C(N/N=C\c1ccc(N(CCCl)CCCl)cc1Cl)c1cccnc1` please.
A) 7.84 µM

Q) Report TGI for `Cn1c(=O)c(C(=O)NC(=O)OCc2ccccc2)cn(CCSCCOC(=O)NCCCCCCNC(=O)OCCSCCn2cc(C(=O)NC(=O)OCc3ccccc3)c(=O)n(C)c2=O)c1=O` please.
A) > 100 µM

Q) Report TGI for `C=C1C(=O)O[C@H]2[C@H]1CC/C(CNS(=O)(=O)c1cccc3ccccc13)=C\CC[C@@]1(C)O[C@@H]21` please.
A) 3.08 µM

More entries:
Q) Report TGI for `CCOC(=O)NC(=O)c1cn(CCN2CCN(C(=O)NCCCCCCNC(=O)N3CCN(CCn4cc(C(=O)NC(=O)OCC)c(=O)n(CCN(CC)CC)c4=O)CC3)CC2)c(=O)n(CCC(CC)CC)c1=O` please.
A) > 100 µM

Q) Report TGI for `O=C(/C=C1/NC(=O)CS1)Nc1ccccc1` please.
A) > 100 µM

Q) Report TGI for COc1ccc(NS(=O)c2ccc(OC)cc2)cc1 (stereo not drawn) please.
A) > 100 µM

Q) Report TGI for CC(=O)N1C2=CCCC2(C)c2ccccc21 (stereo not drawn) please.
A) > 100 µM

###

System: SK-MEL-28 melanoma
assaySummary: NCI tumour cell line growth inhibition, 48 h
experimentalReadout: TGI

Consider the worked cases shown below.
Q) Observed TGI on SK-MEL-28 melanoma for `Cc1cccc2c1C/C(=C1\CCc3c(C)cccc31)C2=O` , please.
A) > 100 µM

Q) Observed TGI on SK-MEL-28 melanoma for `COc1ccc(/C=C/C(=O)c2cc3c(N)c(C(=O)Nc4ccccc4)sc3nc2C)cc1` , please.
A) > 45.1 µM

Q) Observed TGI on SK-MEL-28 melanoma for `C/C(=N/NC(=S)NCCc1ccccn1)c1cnccn1` , please.
A) > 100 µM

More entries:
Q) Observed TGI on SK-MEL-28 melanoma for `Cc1cc(-c2nc3cc(O)ccc3s2)ccc1N` , please.
A) 75.5 µM

Q) Observed TGI on SK-MEL-28 melanoma for `Nc1ncc(CN2CCOCC2)c(-c2ccccc2O)n1` , please.
A) > 100 µM

Q) Observed TGI on SK-MEL-28 melanoma for COc1ccc2c(c1)CC1c3c(cc4c(c3-2)OCO4)CCN1C (stereo unspecified) , please.
A) 95.8 µM

Q) Observed TGI on SK-MEL-28 melanoma for `CS/C(c1ccccc1)=[N+](/C)[O-]` , please.
A) > 100 µM

Q) Observed TGI on SK-MEL-28 melanoma for c1ccc(SC(CCCCOC2CCCCO2)Sc2ccccc2)cc1 (stereo unspecified) , please.
A) > 100 µM

Q) Observed TGI on SK-MEL-28 melanoma for `COC(=O)/C=C(/C(=O)OC)c1c(C)cc2c(C)cc(C)cc(C)c1-2` , please.
A) > 100 µM

Q) Observed TGI on SK-MEL-28 melanoma for `Clc1ccc2c(c1)-c1ccccc1C1=NCCN12` , please.
A) 3.54 µM

Q) Observed TGI on SK-MEL-28 melanoma for COc1ccc2c(c1)N=C1CSC(c3c(Cl)cccc3[N+](=O)[O-])N1C2 (stereo unspecified) , please.
A) > 100 µM

Q) Observed TGI on SK-MEL-28 melanoma for OC(CNC1CCCC1)Cn1c2ccccc2c2ccccc21 (stereo unspecified) , please.
A) > 100 µM

Q) Observed TGI on SK-MEL-28 melanoma for `C/C(=N\NC(=S)NNC(=S)N(C)c1ccccc1)c1ccccn1` , please.
A) > 100 µM

Q) Observed TGI on SK-MEL-28 melanoma for `O=[N+]([O-])/C=C/COCc1cc2c(cc1Br)OCO2` , please.
A) 25.4 µM

Q) Observed TGI on SK-MEL-28 melanoma for COC1=CC(=O)[C@]2(C)[C@H](C1=O)C(C)[C@H]2c1ccccc1 (stereo partly specified) , please.
A) > 100 µM
